Tested on: UACC-257 melanoma
test protocol: NCI-60 one-dose screen, 48 h (100 = growth as untreated, 0 = no growth, -100 = all killed)
measurement parameters: 10 µM unless noted
Compounds without any hit were thinned out: in the full panel of roughly 83,000, 20% have a hit.
growth of 80% or higher: YES. Under 80%: NO.

# count of solved cases: 2
C/C(Cc1ccc(Cl)cc1)=C(\c1ccc(OCCN2CCCCCC2)cc1)c1ccc(OC(=O)Cc2ccccc2)cc1: YES
Nc1cc2nc3ccccc3sc-2cc1=O: NO

Query :: API: above_or_equal(metric=growth, cutoff=80%) for item "CCCCN(CCCC)Cc1c(C)[nH]c2cc(OC)ccc2c1=O"
Result :: YES

Query :: API: above_or_equal(metric=growth, cutoff=80%) for item "Nc1nc(-c2ccc(F)cc2)cc(-c2cnn(-c3ccccc3)n2)n1"
Result :: YES

Query :: API: above_or_equal(metric=growth, cutoff=80%) for item "O=C1/C(=C/c2ccc(Cl)c(Cl)c2)CN(C(=O)CCN2CCC(=NO)CC2)C/C1=C\c1ccc(Cl)c(Cl)c1"
Result :: NO

Query :: API: above_or_equal(metric=growth, cutoff=80%) for item "CC(=O)C1=C(O)C=C2Oc3c(C(=O)/C=C/c4cc(C(F)(F)F)cc(C(F)(F)F)c4)c(O)c(C)c(O)c3[C@]2(C)C1=O"
Result :: NO

Query :: API: above_or_equal(metric=growth, cutoff=80%) for item "CCCCCCCCCCNC(=O)CCl"
Result :: YES

---

Test system: SR leukemia
test protocol: NCI-60 one-dose screen, 48 h
measurement parameters: 10 µM unless noted
The panel holds about 83,000 compounds, 20% with a hit somewhere; the sample as a whole holds those more often. Active and inactive are the calls of the source. How the source made its calls: active means growth percent below 10; inactive means the rest.
Answer with one of the outcomes active, inactive

# count of solved cases: 8
COc1ccc(/C=C2\N=C3SC=C(N)N3C2=O)cc1: active
O=c1c2cccc3c(NC4CCCCC4)ccc(c32)c2nc3ccccc3n12: active
COc1c(Cl)cc(Cl)cc1Cl: inactive
CCN(CC)C12CCCCC1(C)C(C#N)(C#N)C(C#N)=C(N)O2 (stereo not given): inactive
O=c1c(/C=C/c2ccco2)nnc(SCCN2CCOCC2)n1/N=C/c1ccc([N+](=O)[O-])cc1: inactive
Cc1ccc(S(=O)(=O)n2cc(-c3csc(-c4cn(C)c5ncccc45)n3)c3ccccc32)cc1: active
CC[C@H](CO)Nc1nc(NCc2ccccc2)n2ncc(C(C)C)c2n1: active
C=C1CC2(OC1=O)C(=O)N(CCCCCCCN1C(=O)C3(CC(=C)C(=O)O3)c3ccccc31)c1ccccc12 (stereo not given): active

Query :: Please share the test call associated with "CN(CC(=O)N(Cc1ccc(C2CCCCC2)cc1)c1ccc(C(=O)NO)cc1)S(=O)(=O)c1c(F)c(F)c(F)c(F)c1F" .
Result :: active

Query :: Please share the test call associated with "CSc1nc2sc3c(c2c(=O)n1-c1ccc(C(C)C)cc1)CCC(=O)C3" .
Result :: active

---

System: TK-10 renal
test protocol: NCI-60 one-dose screen, 48 h (100 = growth as untreated, 0 = no growth, -100 = all killed)
measurement parameters: 10 µM unless noted
This is part of a sample that, as a whole, favours compounds with a hit. Of some 83,000 tested, about 20% had one in any assay.
observable: growth (%)
Give a bare numeral; the unit % is implied.

Nc1nc2c(c3ncccc13)C(c1ccc(Cl)c(Cl)c1)Cc1ncccc1-2 (stereo not given): 29.5

Now let's try a different one.
Query :: Record request: growth value, item "Cc1cc(Nc2nc(N3CCN(C)CC3)nc3ccccc23)n[nH]1"
Result :: 54.8

---

Tested on: KM12 colon
test protocol: NCI-60 one-dose screen, 48 h
measurement parameters: 10 µM unless noted
Compounds without any hit were thinned out: in the full panel of roughly 83,000, 20% have a hit. Active and inactive are the calls of the source. How the source made its calls: active means growth percent below 10; inactive means the rest.
Answer with one of the outcomes active, inactive

# count of solved cases: 8
COc1ccc2nc3cc(Cl)ccc3c(N3CCN(c4ccnc(N5CCN(C)CC5)n4)CC3)c2c1: inactive
COc1ccc(/C=C2\N=C3Sc4cc(Cl)ccc4C(=O)N3C2=O)cc1: inactive
CCCCCCCCCCCCNC(=O)[C@H]1CSC(c2ccc(OC)c(F)c2)N1 (some centres undefined): active
O=C1c2cccnc2C(=O)c2c1c(C(=O)OCCN1CCCCC1)c1ccccn21: active
CC/C(=C(\c1ccc(O)cc1)c1ccc(OCCN(C)CCN(C)C(=O)CCCCC(=O)c2c(C)[nH]c(/C=C3\N=C(c4ccc[nH]4)C=C3OC)c2C)cc1)c1ccccc1: inactive
COc1ccc(S(=O)(=O)NCCNc2nccc(-c3c(-c4cccc(N)c4)nc4sccn34)n2)cc1: inactive
C=C1CC[C@@H]2[C@](C)(COC(C)=O)[C@H](OC(C)=O)CC[C@@]2(C)[C@@H]1CC(NCc1ccc(F)cc1)C1=CCOC1=O (some centres undefined): inactive
CN1Cc2c(cc(CN3CCCCC3)n2C)C(c2ccc(Br)cc2)C1 (centres undefined): inactive

Query :: Please share the test call associated with "CCOC(=O)c1nc(Nc2cc(C)[nH]n2)c2ccccc2n1" .
Result :: inactive

Query :: Please share the test call associated with "CN1CCN(Cc2ccc(NC(=O)c3cncc(C#Cc4c(N)ncc5ccc(C#N)cc45)c3)cc2C(F)(F)F)CC1" .
Result :: active

Query :: Please share the test call associated with "CC1(C)CC(=O)C(c2c(-c3ccccc3)[nH]c3[nH]c(=S)[nH]c(=O)c23)=C(O)C1" .
Result :: inactive

Query :: Please share the test call associated with "CSc1[nH]c2ncnc(N)c2c1C#N" .
Result :: inactive

Query :: Please share the test call associated with "COc1ccc(C/C(C)=C(\c2ccc(Cl)cc2)c2ccc(OCCN3CCCCCC3)cc2)cc1" .
Result :: inactive

Query :: Please share the test call associated with CN1C2CCC1/C(=C\c1ccc(Cl)cc1)C1=C2[C@@H](c2ccc(Cl)cc2)C(C#N)=C(N)O1 (some centres undefined) .
Result :: inactive

Query :: Please share the test call associated with CCCCCCCCCCCCCCCCCCNC(=O)[C@H]1CSC(c2ccc(F)c(OC)c2)N1 (some centres undefined) .
Result :: active

Query :: Please share the test call associated with "C(=N\Nc1nnn(Cc2ccccc2)n1)/c1ccccc1" .
Result :: inactive

Query :: Please share the test call associated with "Cn1c2ccccc2c2c3[nH]c(=O)[nH]c(=O)c3c3c4ccccc4n(C)c3c21" .
Result :: inactive

Query :: Please share the test call associated with "Cc1cc(=O)oc2cc(Oc3nc(-c4cccs4)cn4c(-c5cccs5)cnc34)ccc12" .
Result :: inactive

Query :: Please share the test call associated with "Cn1c2ccccc2c2c3c(c4c5ccccc5[nH]c4c21)C(=O)N(N)C3=O" .
Result :: inactive

---

Below, each entry is listed alongside its reported growth.
System: TK-10 renal
test protocol: NCI-60 one-dose screen, 48 h (100 = growth as untreated, 0 = no growth, -100 = all killed)
measurement parameters: 10 µM unless noted
This is part of a sample that, as a whole, favours compounds with a hit. Of some 83,000 tested, about 20% had one in any assay.
Give a bare numeral; the unit % is implied.

Below are worked cases with known answers.
CN1CCN(c2ccc3nc(-c4ccc5nc(-c6ccc(OCCC(C)(C)C)cc6)[nH]c5c4)[nH]c3c2)CC1: 89.9
COC(/C=C/c1ccc([N+](=O)[O-])cc1)OC: 103
CNCc1cccc2c1OCCOCCOCCN(C)S(=O)(=O)c1ccc(cc1)-c1cnc(N)c(n1)C(=O)N2: 53.3
COc1c(C2CC(=O)Nc3c2cnn3Cc2ccco2)cc2c(c1OC)OCO2 (stereo unspecified): 73.9
CCc1ccccc1NC(=O)c1sc2nc3c(cc2c1N)C(=O)CCC3: 54.7
c1ccc2c(Nc3cccc4ccccc34)cccc2c1: 81.3
Nc1nc(SCc2ccccc2)c2ncn(C3CCCC3)c2n1: 125
Cc1ccn2c(-c3csc(Nc4cccc(O)c4)n3)c(C)nc2c1: 57.2
CC(C)c1c(C(=O)Nc2ccccc2)c(-c2ccccc2)c(-c2ccc(F)cc2)n1CC[C@@H]1CC=CC(=O)O1: 28.5
O=C(O)c1ccc(=O)[nH]n1: 117

Query :: Record request: growth value, item "Nc1cc2nc3ccccc3sc-2cc1=O"
Result :: 137

Query :: Record request: growth value, item "CCN1CCN(Cc2ccc(NC(=O)Nc3nc4ccc(Oc5ccnc(C(=O)NC)c5)cc4s3)cc2C(F)(F)F)CC1"
Result :: -35.9

Query :: Record request: growth value, item "C[C@@H]1CC[C@@H]2[C@@H]1[C@H](OC(=O)/C=C/c1ccccc1)[C@]1(c3ccccc3)C[C@@H](OC(=O)CO)[C@@]2(C)O1"
Result :: 98.6

Query :: Record request: growth value, item Cn1c(=O)c2[nH]c(C(O)C(O)C(O)C(O)CO)nc2n(C)c1=O (stereo unspecified)
Result :: 103

Query :: Record request: growth value, item "CC(=O)C1=C(O)C=C2Oc3c(C(=O)/C=C/c4cc(C(F)(F)F)cc(C(F)(F)F)c4)c(O)c(C)c(O)c3[C@]2(C)C1=O"
Result :: -32.5

Query :: Record request: growth value, item "COc1c2ccccc2c(OC)c2[nH]c(=O)ccc12"
Result :: 110

Query :: Record request: growth value, item "CN1CCN(Cc2ccc(NC(=O)c3[nH]ncc3Nc3ncnc4[nH]ccc34)cc2)CC1"
Result :: -61.8

Query :: Record request: growth value, item "CCOC(=O)c1ccc2c(c1)nc(/C=C/c1ccc(Cl)cc1)n2-c1cc(C(C)(C)C)[nH]n1"
Result :: 60

Query :: Record request: growth value, item "O=S(=O)(Nc1ccc(Cl)cc1Cl)c1ccc(-c2cnc(C3CC3)o2)cc1"
Result :: 48.4

Query :: Record request: growth value, item "CCN(CC)Cc1cc(Nc2c3ccccc3nc3cc(Cl)ccc23)ccc1O"
Result :: -65.6

Query :: Record request: growth value, item "Oc1cccc(Nc2nccc(-c3ccc4ccccc4c3)n2)c1"
Result :: 62
